Test system: MRSA COL (MB5393)
Experiment: TarO Inhibitor/β-Lactam Synergy Assay (growth, OD600)
Format: cell-based, Staphylococcus aureus
Details: in combination with 8 μg/mL dicloxacillin (DCX)
Method: The TarO inhibitor/β-lactam synergy assay was performed to measure the re-sensitization of methicillin-resistant Staphylococci bacteria (MB5393: MRSA COL) to β-lactam antibiotics by TarO inhibitors. MRSA COL is a hospital-acquired penicillinase-negative clinically isolated strain commonly used in Staphylococcus aureus studies and is fully resistant to the antimicrobial bioactivity of β-lactam antibiotics, including but not limited to imipenem and dicloxacillin. […]
readout_name: MITC95 TarO inhibitor + 8 μg/mL DCX; Bacteria: SA_MB5393

The following molecules have reported results that may help.
**Query** May I ask what MITC95 TarO inhibitor + 8 μg/mL DCX; Bacteria: SA_MB5393 has been recorded for C[C@@H]1NN(C(=O)NCc2cncc3ccccc23)C(=O)O[C@@H]1c1cc(F)cc(C(F)(F)F)c1 ?
**Result** 4.17 µM

**Query** May I ask what MITC95 TarO inhibitor + 8 μg/mL DCX; Bacteria: SA_MB5393 has been recorded for CC[C@H]1[C@@H](c2cc(C(F)(F)F)cc(C(F)(F)F)c2)OC(=O)N1C(=O)CCc1cncc2ccccc12 ?
**Result** 0.59 µM

**Query** May I ask what MITC95 TarO inhibitor + 8 μg/mL DCX; Bacteria: SA_MB5393 has been recorded for C[C@H]1[C@@H](c2cc(F)cc(C(F)(F)F)c2)OC(=O)N1C(=O)NCc1ccccc1OC(F)F ?
**Result** 0.71 µM

**Query** May I ask what MITC95 TarO inhibitor + 8 μg/mL DCX; Bacteria: SA_MB5393 has been recorded for Cc1cccnc1CCNC(=O)N1C(=O)O[C@H](c2cc(C(F)(F)F)cc(C(F)(F)F)c2)[C@@H]1C ?
**Result** 16.67 µM

For each listed entry, give its MITC95 TarO inhibitor + 8 μg/mL DCX; Bacteria: SA_MB5393.
1. C[C@H]1[C@@H](c2cc(F)cc(C(F)(F)F)c2)OC(=O)N1C(=O)NCc1ccnc2cccnc12
2. C[C@@H]1CN(C(=O)NCc2cncc3ccccc23)C(=O)OC1c1cc(C(F)(F)F)cc(C(F)(F)F)c1 (stereo in doubt)

**Result**
14.06 µM
0.50 µM

**Query** May I ask what MITC95 TarO inhibitor + 8 μg/mL DCX; Bacteria: SA_MB5393 has been recorded for COc1cc([C@H]2OC(=O)N(C(=O)NCc3cncc4cccnc34)[C@H]2CO)cc(C(F)(F)F)c1 ?
**Result** 8.33 µM

* * *

Tested on: MRSA COL (MB5393)
Assay: TarO Inhibitor/β-Lactam Synergy Assay (growth, OD600)
Type: cell-based, Staphylococcus aureus
Conditions: in combination with 8 μg/mL dicloxacillin (DCX)
readout_name: MITC95 TarO inhibitor + 8 μg/mL DCX; Bacteria: SA_MB5393 (µM)
Numbers only, in µM.

The following compounds have reported results that may help.
**Query** May I ask what MITC95 TarO inhibitor + 8 μg/mL DCX; Bacteria: SA_MB5393 has been recorded for C[C@H]1[C@@H](c2cc(C(F)(F)F)cc(C(F)(F)F)c2)OC(=O)N1C(=O)NCc1cncc2cccnc12 ?
**Result** 0.39

**Query** May I ask what MITC95 TarO inhibitor + 8 μg/mL DCX; Bacteria: SA_MB5393 has been recorded for C[C@H]1[C@@H](c2cccc(C(F)(F)F)c2)OC(=O)N1C(=O)NCc1cncc2ccccc12 ?
**Result** 1.95

**Query** May I ask what MITC95 TarO inhibitor + 8 μg/mL DCX; Bacteria: SA_MB5393 has been recorded for C[C@H]1[C@@H](c2cc(F)cc(C(F)(F)F)c2)OC(=O)N1C(=O)NCc1cccc2cc[nH]c12 ?
**Result** 1.56

**Query** May I ask what MITC95 TarO inhibitor + 8 μg/mL DCX; Bacteria: SA_MB5393 has been recorded for C[C@H]1[C@@H](c2cccc(C(F)F)c2)OC(=O)N1C(=O)NCc1cncc2ccccc12 ?
**Result** 9.38

**Query** May I ask what MITC95 TarO inhibitor + 8 μg/mL DCX; Bacteria: SA_MB5393 has been recorded for C[C@H]1[C@@H](c2cccc(C(F)(F)F)c2)OC(=O)N1C(=O)NCc1cncc2cccnc12 ?
**Result** 4.69

For each listed entry, give its MITC95 TarO inhibitor + 8 μg/mL DCX; Bacteria: SA_MB5393.
1. COc1cc(C(F)(F)F)nc([C@@H]2OC(=O)N(C(=O)NCc3cncc4ccccc34)[C@H]2C)n1
2. C[C@H]1[C@@H](c2cc(F)cc(C(F)(F)F)c2)OC(=O)N1C(=O)NCc1cccc2ncccc12

**Result**
25
2.73
